# experiment: Intestinal tissue distribution study following a single oral administration in rats
# Assay type: in vivo, Sprague Dawley rats
# experimental parameters: Sprague Dawley, rat; male rats, single oral 25 mg/kg, Plasma; read-out: AUC0-t
readout name: AUC(0-t) (ng·h/mL)
Give bare numbers, in ng·h/mL.

*Q* Given the entry CC(=O)c1c(C)c2c(n(C3CCCC3)c1=O)=NC(Nc1ccc(N3CCN(S(=O)(=O)NCCN)CC3)cn1)NC=2 (stereo not shown) [Compound 1] , report its measured AUC(0-t).
*A* 1.26

###

I'd appreciate it if you could supply constipation relief rate values for the items below.
# Tested on: Irinotecan-induced constipation model
# experiment: Irinotecan-induced constipation model
# Assay type: in vivo, Sprague-Dawley rats
# experimental parameters: 50 mg/kg oral, 6 hours before irinotecan and 6 hours after irinotecan; irinotecan 260 mg/kg once a day, 1 day; rats
Answers are plain numbers, in %.

Solved entries:
1) CC(=O)c1c(C)c2cnc(Nc3ccc(N4CCN(S(=O)(=O)NCC(C)(C)CN)CC4)cn3)nc2n(C2CCCC2)c1=O [Compound 6] | 75
2) CC(=O)c1c(C)c2c(n(C3CCCC3)c1=O)=NC(Nc1ccc(N3CCN(S(=O)(=O)NCCN)CC3)cn1)NC=2 (stereo not shown) [Compound 1] | 50
3) CC(=O)c1c(C)c2cnc(Nc3ccc(N4CCN(S(=O)(=O)NCCCN)CC4)cn3)nc2n(C2CCCC2)c1=O [Compound 4] | 70

Proceed to the following item.
*Q* Hello, I am looking for reported constipation relief rate with Irinotecan-induced constipation model for CC(=O)c1c(C)c2cnc(Nc3ccc(N4CCN(S(=O)(=O)NCC(C)N)CC4)cn3)nc2n(C2CCCC2)c1=O (stereo not shown) [Compound 3] . Could you help?
*A* 70

###

# experiment: Single-dose intravenous and oral pharmacokinetic study in mice
# Format: in vivo, Balb/c mice
# experimental parameters: mouse; male Balb/c mice, IV 5 mg/kg, plasma
readout name: half-life
# number then unit; no other words

*Q* Given the entry CC(=O)c1c(C)c2c(n(C3CCCC3)c1=O)=NC(Nc1ccc(N3CCN(S(=O)(=O)NCCN)CC3)cn1)NC=2 (stereo not shown) , report its measured half-life.
*A* 161 min

###

# experiment: Intestinal tissue distribution study following a single oral administration in rats
# Assay type: in vivo, Sprague Dawley rats
# experimental parameters: Sprague Dawley, rat; male rats, single oral 25 mg/kg, Ileum; ratio of AUC values; read-out: Tissue-to-plasma concentration ratio
readout name: Kp
Answers are plain numbers.

*Q* Given the entry CC(=O)c1c(C)c2c(n(C3CCCC3)c1=O)=NC(Nc1ccc(N3CCN(S(=O)(=O)NCCN)CC3)cn1)NC=2 (stereo not shown) , report its measured Kp.
*A* 4750

###

# experiment: Single-dose intravenous and oral pharmacokinetic study in mice
# Assay type: in vivo, Balb/c mice
# experimental parameters: mouse; male Balb/c mice, IV 5 mg/kg, plasma; read-out: Vdss
readout name: Vd (L/kg)
Answers are plain numbers, in L/kg.

*Q* Given the entry CC(=O)c1c(C)c2c(n(C3CCCC3)c1=O)=NC(Nc1ccc(N3CCN(S(=O)(=O)NCCN)CC3)cn1)NC=2 (stereo not shown) , report its measured Vd.
*A* 11

###

# experiment: Single-dose intravenous and oral pharmacokinetic study in mice
# Assay type: in vivo, Balb/c mice
# experimental parameters: mouse; male Balb/c mice, IV 5 mg/kg, plasma
# Description: Twenty-seven male Balb/c mice were randomly divided into 3 groups, 9 mice in each group. Group 1: mice received an intravenous (IV) dose of Compound 1 at 5 mg/kg with a dosing volume of 5 mL/kg. Blood samples were collected at 0.083, 0.25, 0.5, 1, 2, 4, 6, 8, and 24 hours post-dose using a staggered sampling method. […] The concentrations of Compound 1 or palbociclib in plasma were measured using LC-MS/MS.
readout name: AUC(0-t) (ng·h/mL)
Numbers only, in ng·h/mL.

*Q* Given the entry CC(=O)c1c(C)c2c(n(C3CCCC3)c1=O)=NC(Nc1ccc(N3CCN(S(=O)(=O)NCCN)CC3)cn1)NC=2 (stereo not shown) , report its measured AUC(0-t).
*A* 670

###

# experiment: Intestinal tissue distribution study following a single oral administration in rats
# Type: in vivo, Sprague Dawley rats
# experimental parameters: Sprague Dawley, rat; male rats, single oral 25 mg/kg, Jejunum; ratio of AUC values; read-out: Tissue-to-plasma concentration ratio
readout name: Kp

*Q* Given the entry CC(=O)c1c(C)c2c(n(C3CCCC3)c1=O)=NC(Nc1ccc(N3CCN(S(=O)(=O)NCCN)CC3)cn1)NC=2 (stereo not shown) [Compound 1] , report its measured Kp.
*A* 4300

###

# experiment: Single-dose intravenous and oral pharmacokinetic study in mice
# Format: in vivo, Balb/c mice
# experimental parameters: mouse; male Balb/c mice, PO 50 mg/kg, plasma
I'd appreciate it if you could supply Cmax values for the items below.
One number for each entry, in ng/mL.

Could you tell me Cmax for each of these molecules? They are listed below.
1. CC(=O)c1c(C)c2cnc(Nc3ccc(N4CCNCC4)cn3)nc2n(C2CCCC2)c1=O [palbociclib, reference compound]
2. CC(=O)c1c(C)c2c(n(C3CCCC3)c1=O)=NC(Nc1ccc(N3CCN(S(=O)(=O)NCCN)CC3)cn1)NC=2 (centres unmarked)

*A*
1. 1320
2. 21

###

# experiment: Single-dose intravenous and oral pharmacokinetic study in mice
# Format: in vivo, Balb/c mice
# experimental parameters: mouse; male Balb/c mice, IV 5 mg/kg, plasma
readout name: clearance
# number then unit; no other words

*Q* Given the entry CC(=O)c1c(C)c2c(n(C3CCCC3)c1=O)=NC(Nc1ccc(N3CCN(S(=O)(=O)NCCN)CC3)cn1)NC=2 (stereo not shown) , report its measured clearance.
*A* 119 mL/min/kg

###

# Tested on: 5-FU-induced diarrhea model
# experiment: 5-FU-induced diarrhea model, 5-FU 3-day model
# Type: in vivo, Balb/c mice
# experimental parameters: 10 mg/kg oral twice a day for 3.5 days; 5-FU 60 mg/kg once a day for 3 days; mice
I'd appreciate it if you could supply diarrhea relief rate values for the items below.
# number then unit; no other words

1) CC(=O)c1c(C)c2cnc(Nc3ccc(N4CCN(S(=O)(=O)NCCCN)CC4)cn3)nc2n(C2CCCC2)c1=O | 50%
2) CC(=O)c1c(C)c2c(n(C3CCCC3)c1=O)=NC(Nc1ccc(N3CCN(S(=O)(=O)NCCN)CC3)cn1)NC=2 (stereo not shown) | 40%
3) CC(=O)c1c(C)c2cnc(Nc3ccc(N4CCN(S(=O)(=O)NCC(C)N)CC4)cn3)nc2n(C2CCCC2)c1=O (stereo not shown) | 40%

Proceed to the following item.
*Q* Hello, I am looking for reported diarrhea relief rate with 5-FU-induced diarrhea model for CC(=O)c1c(C)c2cnc(Nc3ccc(N4CCN(S(=O)(=O)NCC(C)CN)CC4)cn3)nc2n(C2CCCC2)c1=O (stereo not shown) . Could you help?
*A* 75%

###

# experiment: Single-dose intravenous and oral pharmacokinetic study in rats
# Type: in vivo, Sprague-Dawley (SD) rats
# experimental parameters: Sprague-Dawley, rat; male SD rats, IV 2 mg/kg, plasma
readout name: half-life (h)
Numbers only, in h.

*Q* Given the entry CC(=O)c1c(C)c2c(n(C3CCCC3)c1=O)=NC(Nc1ccc(N3CCN(S(=O)(=O)NCCN)CC3)cn1)NC=2 (stereo not shown) , report its measured half-life.
*A* 5.55

###

# System: Human colorectal cancer COLO205 cells
# experiment: Cell apoptosis assay (Caspase-Glo 3/7), 5-FU-induced apoptosis
# Assay type: cell-based
# experimental parameters: concentration 25 μM
readout name: Relief rate of 5-FU -induced cell apoptosis
# number then unit; no other words

Solved entries:
1. CC(=O)c1c(C)c2cnc(Nc3ccc(N4CCN(S(=O)(=O)NCCCN)CC4)cn3)nc2n(C2CCCC2)c1=O | 50%
2. CC(=O)c1c(C)c2c(n(C3CCCC3)c1=O)=NC(Nc1ccc(N3CCN(S(=O)(=O)NCCN)CC3)cn1)NC=2 (stereo not shown) | 40%

Could you tell me Relief rate of 5-FU -induced cell apoptosis for each of these molecules? They are listed below.
1. CC(=O)c1c(C)c2cnc(Nc3ccc(N4CCN(S(=O)(=O)NCC(C)N)CC4)cn3)nc2n(C2CCCC2)c1=O (stereo not shown)
2. CC(=O)c1c(C)c2cnc(Nc3ccc(N4CCN(S(=O)(=O)NCC(C)(C)CN)CC4)cn3)nc2n(C2CCCC2)c1=O

*A*
1: 30%; 2: 70%

###

I'd appreciate it if you could supply Relief rate of 5-FU -induced cell apoptosis values for the items below.
# Test system: Human colorectal cancer COLO205 cells
# experiment: Cell apoptosis assay (Caspase-Glo 3/7), 5-FU-induced apoptosis
# Format: cell-based
# experimental parameters: concentration 5 μM
Numbers only, in %.

1. CC(=O)c1c(C)c2cnc(Nc3ccc(N4CCN(S(=O)(=O)NCC(C)CN)CC4)cn3)nc2n(C2CCCC2)c1=O (centres unmarked) [Compound 5] | 50
2. CC(=O)c1c(C)c2cnc(Nc3ccc(N4CCN(S(=O)(=O)NCC(C)(C)N)CC4)cn3)nc2n(C2CCCC2)c1=O [Compound 2] | 50

Could you tell me Relief rate of 5-FU -induced cell apoptosis for each of these compounds? They are listed below.
1. CC(=O)c1c(C)c2cnc(Nc3ccc(N4CCN(S(=O)(=O)NCC(C)(C)CN)CC4)cn3)nc2n(C2CCCC2)c1=O [Compound 6]
2. CC(=O)c1c(C)c2cnc(Nc3ccc(N4CCN(S(=O)(=O)NCC(C)N)CC4)cn3)nc2n(C2CCCC2)c1=O (centres unmarked) [Compound 3]
3. CC(=O)c1c(C)c2c(n(C3CCCC3)c1=O)=NC(Nc1ccc(N3CCN(S(=O)(=O)NCCN)CC3)cn1)NC=2 (centres unmarked) [Compound 1]

*A*
[60, 40, 80]
